Target: Mu-type opioid receptor (Homo sapiens, UniProt P35372)
Sequence (P35372 whole entry): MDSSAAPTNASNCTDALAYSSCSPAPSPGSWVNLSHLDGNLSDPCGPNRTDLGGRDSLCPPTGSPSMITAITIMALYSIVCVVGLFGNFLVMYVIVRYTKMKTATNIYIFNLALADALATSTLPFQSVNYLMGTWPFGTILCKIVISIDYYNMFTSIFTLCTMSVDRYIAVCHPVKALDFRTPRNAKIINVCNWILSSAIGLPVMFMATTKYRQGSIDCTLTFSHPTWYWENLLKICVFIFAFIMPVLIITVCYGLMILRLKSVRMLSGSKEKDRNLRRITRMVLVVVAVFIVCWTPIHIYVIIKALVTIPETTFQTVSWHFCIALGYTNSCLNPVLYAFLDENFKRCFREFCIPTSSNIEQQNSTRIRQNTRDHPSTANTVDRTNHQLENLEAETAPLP
Recorded metric: pKi
// pKi is dimensionless: -log10 of concentration (M)

Past entries and their recorded results:
- Molecule: "O=C(N[C@H]1CC[C@@]2(O)[C@H]3Cc4ccc(O)c5c4[C@@]2(CCN3CC2CC2)[C@H]1O5)c1cc2ccccc2[nH]1"
  Quantitative result: 9.44
- Molecule: "O=C(CCc1c[nH]c2ccccc12)N[C@H]1CC[C@@]2(O)[C@H]3Cc4ccc(O)c5c4[C@@]2(CCN3CC2CC2)[C@H]1O5"
  Quantitative result: 9.36
- Molecule: "O=C(N[C@H]1CC[C@@]2(O)[C@H]3Cc4ccc(O)c5c4[C@@]2(CCN3CC2CC2)[C@H]1O5)c1c[nH]c2ccccc12"
  Quantitative result: 9.54

Req: What pKi appears in the records for this compound with Mu-type opioid receptor (Homo sapiens, UniProt P35372)? "O=C(CCc1c[nH]c2ccccc12)N[C@@H]1CC[C@@]2(O)[C@H]3Cc4ccc(O)c5c4[C@@]2(CCN3CC2CC2)[C@H]1O5"
Resp: 9.78

Req: What pKi appears in the records for this compound with Mu-type opioid receptor (Homo sapiens, UniProt P35372)? "O=C(N[C@H]1CC[C@@]2(O)[C@H]3Cc4ccc(O)c5c4[C@@]2(CCN3CC2CC2)[C@H]1O5)c1ccc2cc[nH]c2c1"
Resp: 9.36

Req: What pKi appears in the records for this compound with Mu-type opioid receptor (Homo sapiens, UniProt P35372)? "O=C(CCCc1c[nH]c2ccccc12)N[C@H]1CC[C@@]2(O)[C@H]3Cc4ccc(O)c5c4[C@@]2(CCN3CC2CC2)[C@H]1O5"
Resp: 9.53

Req: What pKi appears in the records for this compound with Mu-type opioid receptor (Homo sapiens, UniProt P35372)? "O=C(Cc1c[nH]c2ccccc12)N[C@@H]1CC[C@@]2(O)[C@H]3Cc4ccc(O)c5c4[C@@]2(CCN3CC2CC2)[C@H]1O5"
Resp: 9.62

Req: What pKi appears in the records for this compound with Mu-type opioid receptor (Homo sapiens, UniProt P35372)? "O=C(Cc1c[nH]c2ccccc12)N[C@H]1CC[C@@]2(O)[C@H]3Cc4ccc(O)c5c4[C@@]2(CCN3CC2CC2)[C@H]1O5"
Resp: 9.08

Req: What pKi appears in the records for this compound with Mu-type opioid receptor (Homo sapiens, UniProt P35372)? "O=C(N[C@H]1CC[C@@]2(O)[C@H]3Cc4ccc(O)c5c4[C@@]2(CCN3CC2CC2)[C@H]1O5)c1cccc2[nH]ccc12"
Resp: 9.58

Req: What pKi appears in the records for this compound with Mu-type opioid receptor (Homo sapiens, UniProt P35372)? "O=C(N[C@H]1CC[C@@]2(O)[C@H]3Cc4ccc(O)c5c4[C@@]2(CCN3CC2CC2)[C@H]1O5)c1ccc2[nH]ccc2c1"
Resp: 9.12

Req: What pKi appears in the records for this compound with Mu-type opioid receptor (Homo sapiens, UniProt P35372)? "O=C(CCCc1c[nH]c2ccccc12)N[C@@H]1CC[C@@]2(O)[C@H]3Cc4ccc(O)c5c4[C@@]2(CCN3CC2CC2)[C@H]1O5"
Resp: 9.69
